- tested_on: G1 APOL1 (Homo sapiens, UniProt O14791, I384M/S342G)
- Construct: expressed in transfected cells
- Sequence (O14791 28-398 S342G/I384M): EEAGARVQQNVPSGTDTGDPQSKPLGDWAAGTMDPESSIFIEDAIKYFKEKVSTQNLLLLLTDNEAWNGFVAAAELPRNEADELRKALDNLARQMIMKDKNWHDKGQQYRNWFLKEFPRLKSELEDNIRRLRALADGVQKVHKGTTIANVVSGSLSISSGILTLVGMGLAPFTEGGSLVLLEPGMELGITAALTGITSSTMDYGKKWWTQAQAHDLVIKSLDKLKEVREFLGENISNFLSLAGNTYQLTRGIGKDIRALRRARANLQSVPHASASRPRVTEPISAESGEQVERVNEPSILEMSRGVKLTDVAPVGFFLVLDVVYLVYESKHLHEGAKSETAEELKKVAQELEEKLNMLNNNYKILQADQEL
- assay_summary: Acute APOL1 Thallium Assay with inducible stable clones of HEK 293 cells
- Format: cell-based
- experimental_context: HEK 293 T-Rex inducible stable clone expressing G1 APOL1; read-out: Thallium Assay (IC50)
Let's look at some molecules and their measured IC50.
result_type: IC50

>>> df
                                    molecule                                 tested_on  result_type  experimental_result
 0  O=S(=O)(NC[C@H]1C[C@H](c2c(-c3ccc(F)cc3)[nH]c3c(F)cc(F)cc32)C1)N[C@H]1C[C@H](O)C1 [Compound 344]  G1 APOL1 (Homo sapiens, UniProt O14791, I384M/S342G)         IC50            > 1000 nM
 1  NC[C@H]1C[C@H](c2c(-c3ccc(F)cc3)[nH]c3c(F)cc(F)cc32)C1 [Compound 188]  G1 APOL1 (Homo sapiens, UniProt O14791, I384M/S342G)         IC50             < 250 nM
 2  O=C(NC[C@H]1C[C@H](c2c(-c3ccc(F)cc3)[nH]c3c(F)cc(F)cc32)C1)c1cn[nH]c1 [Compound 298]  G1 APOL1 (Homo sapiens, UniProt O14791, I384M/S342G)         IC50            > 1000 nM
 3  CCS(=O)(=O)NCC(=O)NC[C@H]1C[C@@H](c2c(-c3ccc(F)cc3)[nH]c3c(F)cc(F)cc32)C1 [Compound 263]  G1 APOL1 (Homo sapiens, UniProt O14791, I384M/S342G)         IC50            > 1000 nM
 4  O=C(CC1CCCOC1)N[C@H]1C[C@H](c2c(-c3ccc(F)cc3)[nH]c3c(F)cc(F)cc32)C1 (some centres unmarked) [Compound 118]  G1 APOL1 (Homo sapiens, UniProt O14791, I384M/S342G)         IC50            > 1000 nM
 5  NC(=O)C(=O)NC[C@H]1C[C@H](c2c(-c3ccc(F)cc3)[nH]c3c(F)cc(F)cc32)C1 [Compound 451]  G1 APOL1 (Homo sapiens, UniProt O14791, I384M/S342G)         IC50       250 to 1000 nM
 6  CN(CC(O)CO)S(=O)(=O)NC[C@H]1C[C@H](c2c(-c3ccc(F)cc3)[nH]c3c(F)cc(F)cc32)C1 (some centres unmarked) [Compound 361]  G1 APOL1 (Homo sapiens, UniProt O14791, I384M/S342G)         IC50            > 1000 nM
 7  O=C1CC(CNS(=O)(=O)NC[C@H]2C[C@H](c3c(-c4ccc(F)cc4)[nH]c4c(F)cc(F)cc43)C2)CN1 (some centres unmarked) [Compound 368]  G1 APOL1 (Homo sapiens, UniProt O14791, I384M/S342G)         IC50       250 to 1000 nM
 8  O=C(NC[C@H]1C[C@H](c2c(-c3ccc(F)cc3)[nH]c3c(F)cc(F)cc32)C1)c1ccc[nH]c1=O [Compound 330]  G1 APOL1 (Homo sapiens, UniProt O14791, I384M/S342G)         IC50            > 1000 nM
 9  O=C(NC[C@H]1C[C@H](c2c(-c3ccc(F)cc3)[nH]c3c(F)cc(F)cc32)C1)[C@H]1NCC[C@@H]1O [Compound 222]  G1 APOL1 (Homo sapiens, UniProt O14791, I384M/S342G)         IC50       250 to 1000 nM
10  CN(C)CC(=O)N[C@H]1C[C@H](c2c(-c3ccc(F)cc3)[nH]c3c(F)cc(F)cc32)C1 [Compound 91]  G1 APOL1 (Homo sapiens, UniProt O14791, I384M/S342G)         IC50            > 1000 nM
11  O=C(CO)N[C@H]1C[C@H](c2c(-c3ccc(F)cc3)[nH]c3c(F)cc(F)cc32)C1 [Compound 136]  G1 APOL1 (Homo sapiens, UniProt O14791, I384M/S342G)         IC50             < 250 nM
12  CC(=O)NCCNC1CC(c2c(-c3ccc(F)cc3)[nH]c3c(F)cc(F)cc23)C1 (centres unmarked) [Compound 23]  G1 APOL1 (Homo sapiens, UniProt O14791, I384M/S342G)         IC50            > 1000 nM
13  O=C1CCCN1CCCNS(=O)(=O)NC[C@H]1C[C@H](c2c(-c3ccc(F)cc3)[nH]c3c(F)cc(F)cc32)C1 [Compound 335]  G1 APOL1 (Homo sapiens, UniProt O14791, I384M/S342G)         IC50            > 1000 nM

Ref: patent US12281102B2
